Provide the recorded EC50 for the entries that follow.
# TARGET_UNDER_TEST: T1, human DLL4 extracellular domain (human, UniProt Q9NR61 27-529)
# T1 construct: purified recombinant ECD; biotin-labelled or 6xHis-tagged depending on the assay; also called huDLL4 ECD; hu DLL4 ECD
# METHOD_DESCRIPTION: capture ELISA, biotin-huDLL4 ECD

BINDER | EXPERIMENTAL_RESULT
h38H12.8 (antibody, V domains shown, humanized IgG; also called VH.1a/VL.2a 38H12) VH: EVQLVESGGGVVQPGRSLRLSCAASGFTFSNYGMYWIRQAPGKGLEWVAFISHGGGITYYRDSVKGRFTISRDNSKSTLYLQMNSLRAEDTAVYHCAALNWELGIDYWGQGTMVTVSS VL: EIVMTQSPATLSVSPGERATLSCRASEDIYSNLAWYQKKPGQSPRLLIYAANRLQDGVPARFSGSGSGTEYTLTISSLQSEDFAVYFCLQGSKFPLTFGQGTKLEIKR | 0.197 nM
h38H12.3 (antibody, V domains shown, humanized IgG; also called VH.1/VL.1b 38H12) VH: EVQLVESGGGVVQPGRSLRLSCAASGFTFSNYGMYWVRQAPGKGLEWVAFISHGGGITYYRDSVKGRFTISRDNSKNTLYLQMNSLRAEDTAVYYCARLNWELGIDYWGQGTMVTVSS VL: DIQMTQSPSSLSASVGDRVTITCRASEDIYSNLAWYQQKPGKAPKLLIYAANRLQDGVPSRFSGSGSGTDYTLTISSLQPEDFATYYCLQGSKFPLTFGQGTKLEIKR | 5.57 nM

Please go through the list and note EC50 for each binder.
1. h38H12.4 (antibody, V domains shown, humanized IgG; also called VH.1/VL.2a 38H12) VH: EVQLVESGGGVVQPGRSLRLSCAASGFTFSNYGMYWVRQAPGKGLEWVAFISHGGGITYYRDSVKGRFTISRDNSKNTLYLQMNSLRAEDTAVYYCARLNWELGIDYWGQGTMVTVSS VL: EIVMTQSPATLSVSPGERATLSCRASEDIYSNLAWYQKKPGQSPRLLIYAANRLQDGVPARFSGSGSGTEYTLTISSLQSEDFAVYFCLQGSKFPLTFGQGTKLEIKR
2. h38H12.11 (antibody, V domains shown, humanized IgG; also called VH.1b/VL.1b 38H12) VH: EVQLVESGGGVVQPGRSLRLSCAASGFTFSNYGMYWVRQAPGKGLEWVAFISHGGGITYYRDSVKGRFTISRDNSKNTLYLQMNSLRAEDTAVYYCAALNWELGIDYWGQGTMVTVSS VL: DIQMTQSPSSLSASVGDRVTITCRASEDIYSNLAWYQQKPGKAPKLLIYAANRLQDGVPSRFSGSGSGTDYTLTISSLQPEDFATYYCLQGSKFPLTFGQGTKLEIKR
3. h38H12.6 (antibody, V domains shown, humanized IgG; also called VH.1a/VL.1a 38H12) VH: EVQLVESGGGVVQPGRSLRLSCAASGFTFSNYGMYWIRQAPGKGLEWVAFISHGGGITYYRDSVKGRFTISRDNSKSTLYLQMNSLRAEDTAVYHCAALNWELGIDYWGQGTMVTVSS VL: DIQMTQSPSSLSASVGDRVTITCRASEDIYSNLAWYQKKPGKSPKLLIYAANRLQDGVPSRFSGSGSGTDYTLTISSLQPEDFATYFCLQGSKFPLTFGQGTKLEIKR
4. h38H12.1 (antibody, V domains shown, humanized IgG; also called VH.1/VL.1 38H12) VH: EVQLVESGGGVVQPGRSLRLSCAASGFTFSNYGMYWVRQAPGKGLEWVAFISHGGGITYYRDSVKGRFTISRDNSKNTLYLQMNSLRAEDTAVYYCARLNWELGIDYWGQGTMVTVSS VL: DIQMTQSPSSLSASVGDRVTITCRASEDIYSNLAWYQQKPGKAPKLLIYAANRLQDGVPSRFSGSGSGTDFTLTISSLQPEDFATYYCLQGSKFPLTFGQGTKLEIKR
5. h38H12.15 (antibody, V domains shown, humanized IgG; also called VH.2a/VL.1b 38H12) VH: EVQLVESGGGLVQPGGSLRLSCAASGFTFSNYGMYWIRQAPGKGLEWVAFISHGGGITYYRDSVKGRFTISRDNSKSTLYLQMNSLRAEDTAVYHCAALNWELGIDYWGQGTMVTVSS VL: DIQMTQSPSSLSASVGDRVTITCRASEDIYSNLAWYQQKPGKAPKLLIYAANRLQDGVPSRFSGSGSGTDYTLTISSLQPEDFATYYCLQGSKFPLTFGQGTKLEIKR

20.6 nM
0.126 nM
0.158 nM
21.5 nM
0.0904 nM

Please go through the list and note EC50 for each binder.
1. h38H12.10 (antibody, V domains shown, humanized IgG; also called VH.1b/VL.1a 38H12) VH: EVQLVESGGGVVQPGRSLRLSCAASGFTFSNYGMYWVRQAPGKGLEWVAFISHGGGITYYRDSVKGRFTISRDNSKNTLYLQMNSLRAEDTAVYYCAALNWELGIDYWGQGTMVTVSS VL: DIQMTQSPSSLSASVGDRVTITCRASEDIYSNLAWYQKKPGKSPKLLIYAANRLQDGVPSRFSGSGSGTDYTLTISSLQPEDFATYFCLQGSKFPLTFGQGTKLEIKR
2. h38H12.2 (antibody, V domains shown, humanized IgG; also called VH.1/VL.1a 38H12) VH: EVQLVESGGGVVQPGRSLRLSCAASGFTFSNYGMYWVRQAPGKGLEWVAFISHGGGITYYRDSVKGRFTISRDNSKNTLYLQMNSLRAEDTAVYYCARLNWELGIDYWGQGTMVTVSS VL: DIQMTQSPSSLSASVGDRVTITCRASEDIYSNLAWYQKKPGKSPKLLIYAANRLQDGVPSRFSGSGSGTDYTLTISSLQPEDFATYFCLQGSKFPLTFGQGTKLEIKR
3. h38H12.16 (antibody, V domains shown, humanized IgG; also called VH.2a/VL.2a 38H12) VH: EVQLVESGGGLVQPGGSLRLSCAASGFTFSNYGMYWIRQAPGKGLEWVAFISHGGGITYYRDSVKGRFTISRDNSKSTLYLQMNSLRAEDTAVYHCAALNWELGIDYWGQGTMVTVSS VL: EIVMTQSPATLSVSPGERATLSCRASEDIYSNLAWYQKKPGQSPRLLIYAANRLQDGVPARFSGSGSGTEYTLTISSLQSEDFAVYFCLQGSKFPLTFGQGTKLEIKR
4. h38H12.7 (antibody, V domains shown, humanized IgG; also called VH.1a/VL.1b 38H12) VH: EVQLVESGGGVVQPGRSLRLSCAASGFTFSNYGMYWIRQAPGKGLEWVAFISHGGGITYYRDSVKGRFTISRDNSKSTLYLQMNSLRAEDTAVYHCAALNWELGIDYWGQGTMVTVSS VL: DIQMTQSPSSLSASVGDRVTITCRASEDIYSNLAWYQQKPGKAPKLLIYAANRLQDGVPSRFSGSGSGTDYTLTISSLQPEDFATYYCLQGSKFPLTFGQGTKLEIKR

1: 0.123 nM; 2: 26.9 nM; 3: 0.17 nM; 4: 0.18 nM
